The values you see were collected from ChEMBL document CHEMBL1212806.

Below, each entry is listed alongside its reported TIME.
Target Under Test: Transthyretin (Homo sapiens)
Assay Summary: Stabilization of wild-type TTR tetramer assessed as time needed for 95% TTR-compound conjugate formation by C18-RP-HPLC
Quick reminder: number only, in h, skip the unit.

Known results for molecules:
[[record]]
sample_smiles = "O=C(Sc1ccccc1)c1cccc(/C=C/c2cc(Br)c(O)c(Br)c2)c1"
property_label = "TIME"
data_value = 21.2

[[record]]
sample_smiles = "Cc1cc(/C=C/c2cccc(C(=O)Oc3ccc(F)cc3)c2)cc(C)c1O"
property_label = "TIME"
data_value = 21.9

[[record]]
sample_smiles = "Cc1cc(/C=C/c2cccc(C(=O)Sc3ccccc3)c2)cc(C)c1O"
property_label = "TIME"
data_value = 1.35


Consider the additional molecule presented here.
The recorded TIME with Transthyretin (Homo sapiens) for Cc1cc(/C=C/c2cccc(C(=O)Oc3ccccc3[N+](=O)[O-])c2)cc(C)c1O was 0.983
